Assignment: determine reported % activity for the given sequences.
target: Src(1-530)(h) (Homo sapiens); construct: Src(1-530)(h); experiment: Kinase Profiling Assay; format: biochemical; settings: 100 μM
Record the value in %, omitting the unit from your answer.

Write down % activity measured for item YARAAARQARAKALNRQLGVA [MMI-0200]
75

Specify reported % activity for the sequence shown: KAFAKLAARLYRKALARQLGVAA [MMI-0400]
19

Look up % activity of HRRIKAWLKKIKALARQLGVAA [MMI-0500] and report it.
21

Determine its reported % activity: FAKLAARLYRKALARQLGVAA [MMI-0300]
23

---

Consider the following sequences; for each one, report its % activity.
target: Flt1(h) (Homo sapiens, UniProt P17948); assay: Kinase Profiling Assay; format: biochemical; settings: 100 μM
Sequence (P17948 27-1338): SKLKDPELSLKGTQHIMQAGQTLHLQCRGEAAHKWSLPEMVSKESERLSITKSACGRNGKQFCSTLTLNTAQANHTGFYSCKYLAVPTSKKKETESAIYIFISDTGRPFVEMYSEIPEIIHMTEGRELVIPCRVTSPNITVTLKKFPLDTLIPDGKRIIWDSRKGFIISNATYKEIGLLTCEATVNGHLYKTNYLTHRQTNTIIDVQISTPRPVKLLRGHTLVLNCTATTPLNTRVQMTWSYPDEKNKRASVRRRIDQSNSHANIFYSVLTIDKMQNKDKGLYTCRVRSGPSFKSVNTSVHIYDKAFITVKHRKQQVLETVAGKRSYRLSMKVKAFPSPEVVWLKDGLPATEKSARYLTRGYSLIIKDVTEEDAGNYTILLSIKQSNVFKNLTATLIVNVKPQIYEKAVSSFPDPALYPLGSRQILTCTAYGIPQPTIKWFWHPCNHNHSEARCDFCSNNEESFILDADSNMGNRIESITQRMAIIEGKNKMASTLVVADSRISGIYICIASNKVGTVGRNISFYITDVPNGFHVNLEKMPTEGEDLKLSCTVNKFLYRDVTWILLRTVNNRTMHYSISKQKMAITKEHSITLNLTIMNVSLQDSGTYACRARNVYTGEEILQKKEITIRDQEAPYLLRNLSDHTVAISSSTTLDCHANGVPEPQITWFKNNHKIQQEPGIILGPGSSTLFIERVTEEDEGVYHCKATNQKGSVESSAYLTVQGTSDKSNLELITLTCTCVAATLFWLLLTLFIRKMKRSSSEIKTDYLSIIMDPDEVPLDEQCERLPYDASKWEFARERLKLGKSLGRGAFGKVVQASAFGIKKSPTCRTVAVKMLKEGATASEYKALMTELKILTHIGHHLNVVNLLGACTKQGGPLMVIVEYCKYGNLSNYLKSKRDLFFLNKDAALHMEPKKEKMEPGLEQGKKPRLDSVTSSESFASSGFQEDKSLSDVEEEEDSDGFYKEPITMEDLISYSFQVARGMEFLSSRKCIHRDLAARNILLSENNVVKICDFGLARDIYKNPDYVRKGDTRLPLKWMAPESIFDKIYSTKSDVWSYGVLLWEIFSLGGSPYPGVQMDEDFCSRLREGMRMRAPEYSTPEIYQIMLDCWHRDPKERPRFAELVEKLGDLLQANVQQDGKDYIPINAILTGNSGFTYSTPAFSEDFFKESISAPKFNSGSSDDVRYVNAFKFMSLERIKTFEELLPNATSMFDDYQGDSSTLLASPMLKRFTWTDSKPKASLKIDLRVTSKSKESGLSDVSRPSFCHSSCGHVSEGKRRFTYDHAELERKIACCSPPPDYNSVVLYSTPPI

Find the measured % activity of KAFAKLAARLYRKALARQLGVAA [MMI-0400] and report it.
48%

Look up and state reported % activity for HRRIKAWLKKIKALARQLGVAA [MMI-0500]
27%

Return % activity for the following sequence: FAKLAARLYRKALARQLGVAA [MMI-0300]
69%

Identify the reported % activity for the following entry. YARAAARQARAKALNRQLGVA [MMI-0200]
96%

---

target: Ret(h) (Homo sapiens, UniProt P07949); experiment: Kinase Profiling Assay; assay type: biochemical; details: 100 μM
Readout Label: % activity (%)
Just the number in %, nothing appended.

Consider the sequence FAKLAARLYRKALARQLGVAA [MMI-0300] tested on Ret(h) (Homo sapiens, UniProt P07949); state its % activity.
140

Report measured % activity on Ret(h) (Homo sapiens, UniProt P07949); entry: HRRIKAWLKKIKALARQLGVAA [MMI-0500]
174

Specify % activity for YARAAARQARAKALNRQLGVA [MMI-0200] , system Ret(h) (Homo sapiens, UniProt P07949).
96

Report the value of % activity obtained on Ret(h) (Homo sapiens, UniProt P07949) for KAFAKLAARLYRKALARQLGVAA [MMI-0400] .
145

---

Target: ZAP-70(h) (Homo sapiens)
Sequence (P43403 1-619): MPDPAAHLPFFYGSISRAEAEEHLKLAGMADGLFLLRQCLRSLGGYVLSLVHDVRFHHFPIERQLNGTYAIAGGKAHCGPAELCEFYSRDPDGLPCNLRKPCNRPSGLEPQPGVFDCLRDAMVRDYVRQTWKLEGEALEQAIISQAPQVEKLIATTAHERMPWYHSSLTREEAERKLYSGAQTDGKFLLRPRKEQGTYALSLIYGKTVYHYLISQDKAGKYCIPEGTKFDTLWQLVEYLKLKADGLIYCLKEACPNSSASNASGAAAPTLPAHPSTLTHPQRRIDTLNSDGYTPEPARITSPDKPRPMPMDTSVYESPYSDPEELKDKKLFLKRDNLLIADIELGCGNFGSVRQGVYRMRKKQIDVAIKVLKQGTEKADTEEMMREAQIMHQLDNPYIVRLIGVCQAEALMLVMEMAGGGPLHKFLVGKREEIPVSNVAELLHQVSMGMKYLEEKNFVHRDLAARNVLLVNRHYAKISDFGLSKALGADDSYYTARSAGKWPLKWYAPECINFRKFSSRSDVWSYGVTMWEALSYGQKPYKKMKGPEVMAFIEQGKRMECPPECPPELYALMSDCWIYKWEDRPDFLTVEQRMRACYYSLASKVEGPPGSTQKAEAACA
Test: Kinase Profiling Assay
Assay type: biochemical
Conditions: 100 μM
Can you tell me % activity for the items I'm about to list?
Enter your answer as a number in %; do not include the unit.

Consider the sequence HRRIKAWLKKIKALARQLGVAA [MMI-0500] . State its measured % activity.
1

Supply reported % activity belonging to this sequence: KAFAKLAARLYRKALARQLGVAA [MMI-0400]
33

Specify % activity for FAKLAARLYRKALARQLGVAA [MMI-0300] and stop.
75

Supply % activity value. Item: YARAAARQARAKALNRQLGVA [MMI-0200]
58

Data provenance is patent US20190134153A1.
